- system: FAAH (Rattus norvegicus)
- Construct: Preparation of Rat Brain Membranes Preparations (FAAH Enzyme Solution); from tissue; host or cells: rat cerebrum (brain membrane preparation)
- assayInfo: Determination of FAAH inhibitory activity in rat (rat brain membrane preparations, [3H]-anandamide hydrolysis)
- Assay type: biochemical
- conditionSummary: rat brain membrane preparations; 100 nM test substance; read-out: FAAH Inhibition, Inhibition Rate at 100 nM
endpointName: inhibition at 0.1 µM (%)
Response body: numeric value in %, unit text excluded.

q: Enter reported inhibition at 0.1 µM observed with FAAH (Rattus norvegicus) for COc1cccc(Cc2ncc3c(n2)n(C)c(=O)n3C(=O)N2CCC2)c1 [Example 375]
a: 94

q: Reported inhibition at 0.1 µM for FAAH (Rattus norvegicus), given COc1cccc(-c2ncc3c(n2)n(C)c(=O)n3C(=O)N(C)Cc2ccc(Cl)cc2)c1 [Example 78] ?
a: 108

q: # value lookup — system FAAH (Rattus norvegicus), readout inhibition at 0.1 µM, item CCOc1cccc(-c2ncc3c(n2)n(C)c(=O)n3C(=O)N2CCCC2)c1 [compound 175]
a: 101

q: Write down the reported inhibition at 0.1 µM of Cc1cncc(-c2ncc3c(n2)n(C)c(=O)n3C(=O)N2CCCC2)c1 [compound 212] , test system: FAAH (Rattus norvegicus).
a: 88

q: Write down the reported inhibition at 0.1 µM of COCc1ncc2c(n1)n(C)c(=O)n2C(=O)N1CC[C@H](Oc2cccc(C)c2)C1 [Example 485] , test system: FAAH (Rattus norvegicus).
a: 112

q: Item: Cn1c(=O)n(C(=O)N2CCCC2)c2cnc(Cc3ccc(-c4ccccc4)cc3)nc21 [Example 265] Test system: FAAH (Rattus norvegicus) Read-out: inhibition at 0.1 µM Value: ?
a: 98

q: Kindly state the measured inhibition at 0.1 µM obtained for Cn1c(=O)n(C(=O)N2CCC2)c2nc(-c3cccc(F)c3)ncc21 [compound 353] with FAAH (Rattus norvegicus).
a: 72

q: Form field - read-out: inhibition at 0.1 µM; system: FAAH (Rattus norvegicus); submitted item: CCOc1ccc(Cc2ncc3c(n2)n(C)c(=O)n3C(=O)N2CCCC2)cc1 [compound 263]
a: 75

q: Please state recorded inhibition at 0.1 µM (tested on FAAH (Rattus norvegicus)) of COc1cccc(-c2ncc3c(n2)n(C)c(=O)n3C(=O)N(C)Cc2cccc(C(F)(F)F)c2)c1 [Example 82]
a: 90

q: Request - read-out inhibition at 0.1 µM | tested on FAAH (Rattus norvegicus) | compound CN(C)C(=O)n1c(=O)n(C)c2cnc(COc3cccc(Cl)c3)nc21 [Example 414]
a: 84

q: Query the reported inhibition at 0.1 µM for FAAH (Rattus norvegicus); item: Cn1c(=O)n(C(=O)N2CCC(c3ccccc3)CC2)c2cnc(-c3ccccc3)nc21 [Example 33]
a: 91

q: Entry Cn1c(=O)n(C(=O)N2CCCC2)c2cnc(-c3ccccc3F)nc21 [Example 166] , system FAAH (Rattus norvegicus): what inhibition at 0.1 µM was measured?
a: 99

====

- system: FAAH (Rattus norvegicus)
- Construct: Preparation of Rat Brain Membranes Preparations (FAAH Enzyme Solution); from tissue; host or cells: rat cerebrum (brain membrane preparation)
- assayInfo: Determination of FAAH inhibitory activity in rat (rat brain membrane preparations, [3H]-anandamide hydrolysis)
- Format: biochemical
- conditionSummary: read-out: FAAH Inhibition, Inhibition Rate at 100 nM
endpointName: inhibition at 0.1 µM (%)
Use % as the unit, but write only the number.

q: FAAH (Rattus norvegicus) / inhibition at 0.1 µM / COc1cccc(-c2ncc3c(n2)n(C)c(=O)n3C(=O)N(C)CCCl)c1 : value?
a: 100

q: For FAAH (Rattus norvegicus), provide inhibition at 0.1 µM of COc1cccc(-c2ncc3c(n2)n(C)c(=O)n3C(=O)N2CCN(Cc3cccc(F)c3)CC2)c1 please.
a: 93

q: Please tell me: inhibition at 0.1 µM of CN(CCCc1ccccc1)C(=O)n1c(=O)n(C)c2nc(-c3ccccc3)ncc21 , system FAAH (Rattus norvegicus)?
a: 100

====

For each record, write down the corresponding inhibition at 0.1 µM.
- system: FAAH (Rattus norvegicus, UniProt P97612)
- Construct: Preparation of Rat Brain Membranes Preparations (FAAH Enzyme Solution); from tissue; host or cells: rat cerebrum (brain membrane preparation)
- assayInfo: Determination of FAAH inhibitory activity in rat (rat brain membrane preparations, [3H]-anandamide hydrolysis)
- Assay type: biochemical
- conditionSummary: rat brain membrane preparations; 100 nM test substance; read-out: FAAH Inhibition, Inhibition Rate at 100 nM
- Protocol: Determination of FAAH Inhibitory Activity in Rat The preparation of rat brain membranes preparations and the determination of FAAH inhibitory activity were carried out according to the Jonsson et al. method [Br. J. Pharmacol., 133, 1263 (2001)]. (1) Preparation of Rat Brain Membranes Preparations (FAAH Enzyme Solution) The cerebrum was extracted from rats and was freeze-stored at −80° C. […]
// units = %; emit number, no label

q: Could you tell me which inhibition at 0.1 µM is on file for Cn1c(=O)n(C(=O)N2CCCC2)c2cnc(-c3cccc(N)c3)nc21 [Example 317] ?
a: 103

q: // lookup inhibition at 0.1 µM for CN(CCc1ccc(Cl)cc1)C(=O)n1c(=O)n(C)c2nc(C3CC3)ncc21 [Example 153]
a: 99

q: Reported inhibition at 0.1 µM, compound Cn1c(=O)n(C(=O)N2CCN(c3nccs3)CC2)c2cnc(-c3ccccc3)nc21 [Example 55] : ____
a: 94

q: Consider the compound CCCOc1ccc(CCc2ncc3c(n2)n(C(=O)N2CCC2)c(=O)n3C)cc1 [compound 564] and give its measured inhibition at 0.1 µM.
a: 98

q: Using the record for C/C=C/c1ncc2c(n1)n(C)c(=O)n2C(=O)N1CCCC1 [Example 217] , report its inhibition at 0.1 µM.
a: 99

q: Endpoint output: inhibition at 0.1 µM of CCc1ccccc1CCc1ncc2c(n1)n(C(=O)N(C)C)c(=O)n2C [compound 515] . Value?
a: 100

q: Value lookup for inhibition at 0.1 µM; key = CCOc1ccc(C2CN(C(=O)n3c(=O)n(C)c4nc(COC)ncc43)C2)cc1 [compound 445]
a: 105

q: # lookup: inhibition at 0.1 µM of Cn1c(=O)n(C(=O)N2CCN(c3cccc(F)c3)CC2)c2cnc(-c3ccccc3)nc21 [Example 124]
a: 101

q: // lookup inhibition at 0.1 µM for COc1ccc(F)cc1-c1ncc2c(n1)n(C)c(=O)n2C(=O)N1CCCC1 [compound 195]
a: 83

====

- system: FAAH (Rattus norvegicus)
- Construct: Preparation of Rat Brain Membranes Preparations (FAAH Enzyme Solution); from tissue; host or cells: rat cerebrum (brain membrane preparation)
- Sequence (P97612 1-579): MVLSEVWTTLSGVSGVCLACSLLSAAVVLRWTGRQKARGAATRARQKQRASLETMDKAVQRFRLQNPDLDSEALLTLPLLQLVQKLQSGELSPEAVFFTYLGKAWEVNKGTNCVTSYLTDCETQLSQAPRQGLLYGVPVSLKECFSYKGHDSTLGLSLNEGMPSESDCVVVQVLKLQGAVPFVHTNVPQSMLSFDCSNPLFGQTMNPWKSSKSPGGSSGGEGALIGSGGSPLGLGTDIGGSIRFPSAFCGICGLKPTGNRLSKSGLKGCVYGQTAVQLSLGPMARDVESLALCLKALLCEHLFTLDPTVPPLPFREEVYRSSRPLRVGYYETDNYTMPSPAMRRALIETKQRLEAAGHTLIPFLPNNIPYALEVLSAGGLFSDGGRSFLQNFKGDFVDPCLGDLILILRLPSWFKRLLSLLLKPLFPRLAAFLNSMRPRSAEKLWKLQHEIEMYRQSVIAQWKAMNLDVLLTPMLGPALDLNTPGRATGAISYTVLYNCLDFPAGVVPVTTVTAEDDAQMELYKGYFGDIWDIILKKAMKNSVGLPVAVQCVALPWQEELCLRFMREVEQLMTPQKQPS
- assayInfo: Determination of FAAH inhibitory activity in rat (rat brain membrane preparations, [3H]-anandamide hydrolysis)
- Type: biochemical
- conditionSummary: rat brain membrane preparations; test substance 0.1 nM to 1 μM; read-out: FAAH Inhibition IC50
endpointName: pIC50
Value format note: pIC50 is -log10 of concentration (mol/L); just state the number.

q: Query for FAAH (Rattus norvegicus): what pIC50 does the record show for COCc1ncc2c(n1)n(C)c(=O)n2C(=O)N1CC[C@H](Oc2ccccc2C)C1 ?
a: 8.70

q: Please provide the recorded pIC50 for Cn1c(=O)n(C(=O)N2CCN(c3nccs3)CC2)c2cnc(-c3ccccc3)nc21 , tested on FAAH (Rattus norvegicus).
a: 7.60

q: Checklist item: pIC50 tested on FAAH (Rattus norvegicus), entry CN(CCCCc1ccccc1)C(=O)n1c(=O)n(C)c2nc(-c3ccccc3)ncc21 , value?
a: 8.15

q: Write down the reported pIC50 of COc1cccc(-c2ncc3c(n2)n(C)c(=O)n3C(=O)N2CC=C(/C=C/c3ccc(F)cc3)CC2)c1 , test system: FAAH (Rattus norvegicus).
a: 8.52

q: Fill in the recorded pIC50 for this molecule, with FAAH (Rattus norvegicus) as test system: CCOCc1ncc2c(n1)n(C)c(=O)n2C(=O)N1CC(c2ccc(F)cc2)C1
a: 8.00

q: Missing value: pIC50, FAAH (Rattus norvegicus), entry Cn1c(=O)n(C(=O)N2CCCC2)c2cnc(-c3cncc(F)c3)nc21 . Fill in?
a: 8.10

q: For the record Cn1c(=O)n(C(=O)N2CCCC2)c2cnc(Cc3cccc(F)c3)nc21 , what value of pIC50 is listed for FAAH (Rattus norvegicus)?
a: 7.85

q: # value lookup — system FAAH (Rattus norvegicus), readout pIC50, item CCN(C)C(=O)n1c(=O)n(C)c2nc(-c3cccc(OC)c3)ncc21
a: 8.22

q: Under FAAH (Rattus norvegicus): pIC50 value of COc1cccc(-c2ncc3c(n2)n(C)c(=O)n3C(=O)N(C)CCC2=CCCCC2)c1 ?
a: 9.00

q: Form entry - test system: FAAH (Rattus norvegicus); read-out: pIC50; molecule: Cn1c(=O)n(C(=O)N2CCCC2)c2cnc(C3CCCCC3)nc21
a: 7.26

q: Field: pIC50 (FAAH (Rattus norvegicus)). Entry: Cn1c(=O)n(C(=O)N2CCCC2)c2cnc(-c3ccc(-c4ccccc4)cc3)nc21
a: 7.36

q: Item CCOc1cccc(C2CN(C(=O)n3c(=O)n(C)c4nc(CCCOC)ncc43)C2)c1 with FAAH (Rattus norvegicus) - pIC50?
a: 7.66

q: Observed pIC50 on FAAH (Rattus norvegicus) for CCN(C)C(=O)n1c(=O)n(C)c2nc(Cc3ccc(C)cc3)ncc21 , please.
a: 7.85

q: Give pIC50 (FAAH (Rattus norvegicus)) of the following molecule: COCc1ncc2c(n1)n(C)c(=O)n2C(=O)N1CC[C@H](Oc2cccc(C)c2)C1
a: 8.52

q: So what pIC50 did CCOCc1ncc2c(n1)n(C)c(=O)n2C(=O)N1CC(c2ccccc2F)C1 get with FAAH (Rattus norvegicus)?
a: 8.00

q: GET /values?readout=pIC50&system=FAAH (Rattus norvegicus)&item= CCc1ccc(CCc2ncc3c(n2)n(C(=O)N2CCC2)c(=O)n3C)cc1
a: 8.00

q: For the record Cn1c(=O)n(C(=O)N2CCCC2)c2nc(Cc3ccccc3F)ncc21 , what value of pIC50 is listed for FAAH (Rattus norvegicus)?
a: 7.40

q: Record lookup: for FAAH (Rattus norvegicus), what pIC50 belongs to COc1cccc(-c2ncc3c(n2)n(C)c(=O)n3C(=O)N2CC[C@@H](F)C2)c1 ?
a: 7.59

q: Request: pIC50, test system FAAH (Rattus norvegicus), entry CN(C)C(=O)n1c(=O)n(C)c2cnc(-c3cccc(Cl)c3)nc21
a: 8.30

q: Entry COCc1ncc2c(n1)n(C)c(=O)n2C(=O)N1CC[C@@H](Oc2ccccc2)C1 , system FAAH (Rattus norvegicus): what pIC50 was measured?
a: 7.37

q: Recorded pIC50 for Cn1c(=O)n(C(=O)N2CCCC2)c2nc(CCc3ccc(F)cc3)ncc21 with FAAH (Rattus norvegicus), please?
a: 7.43

q: Form: Entry = Cn1c(=O)n(C(=O)N2CCCC2)c2cnc(-c3ccc(F)cc3F)nc21 | System = FAAH (Rattus norvegicus) | pIC50 = ____
a: 8.05

q: Reported pIC50 for FAAH (Rattus norvegicus), given COCc1ncc2c(n1)n(C)c(=O)n2C(=O)N1CC(c2ccc(Cl)cc2)C1 ?
a: 8.22

Source listed as patent US8735406B2.
